Test: AUC in Beagle dog at 5 mg/kg, po
Assay type: ADME, organism-based, Canis lupus familiaris
Parameters: dose 5 mg/kg, route oral
Settings: plasma
measure: AUC (ng·h/mL)

- chemicalString: "O=c1ccc2ncc(F)c3c2n1C[C@@]3(O)CN1CCC(NCc2cc3c(cn2)OCCO3)CC1"
  val: 2820

====

Test: Oral bioavailability in Beagle dog at 5 mg/kg
Type: ADME, organism-based, Canis lupus familiaris
Conditions: in vivo

- chemicalString: "O=c1ccc2ncc(F)c3c2n1C[C@@]3(O)CN1CCC(NCc2cc3c(cn2)OCCO3)CC1"
  bioavailability: "63%"

====

Assay: Cmax in nonneutropenic mouse infected with Streptococcus pneumoniae 1629 at 50 mg/kg, po bid
Assay type: ADME, organism-based
Set-up: dose 50 mg/kg, route oral
Conditions: in vivo

- chemicalString: "O=c1ccc2ncc(F)c3c2n1C[C@@]3(O)CN1CCC(NCc2cc3c(cn2)OCCO3)CC1"
  endpointUnit: "ng/mL"
  Cmax: 8000

====

Assay: AUC in nonneutropenic mouse infected with Streptococcus pneumoniae 1629 at 50 mg/kg, po bid measured per day
Assay type: ADME, organism-based
Set-up: dose 50 mg/kg, route oral
Settings: plasma

- chemicalString: "O=c1ccc2ncc(F)c3c2n1C[C@@]3(O)CN1CCC(NCc2cc3c(cn2)OCCO3)CC1"
  AUC (ng·h/mL): 50000

====

Test: Plasma protein binding in rat
Format: ADME, cell-free
Conditions: read-out: PPB (converted)

- chemicalString: "O=c1ccc2ncc(F)c3c2n1C[C@@]3(O)CN1CCC(NCc2cc3c(cn2)OCCO3)CC1"
  fraction unbound: 0.577

====

Assay: Clearance in Sprague-Dawley rat at 3 mg/kg, iv
Assay type: ADME, organism-based
Parameters: dose 3 mg/kg, route intravenous
Details: in vivo
measure: clearance (mL/min/kg)

- chemicalString: "O=c1ccc2ncc(F)c3c2n1C[C@@]3(O)CN1CCC(NCc2cc3c(cn2)OCCO3)CC1"
  val: 62.2

====

Test: Oral bioavailability in cynomolgus monkey at 5 mg/kg
Format: ADME, organism-based, Macaca fascicularis
Details: in vivo

- chemicalString: "O=c1ccc2ncc(F)c3c2n1C[C@@]3(O)CN1CCC(NCc2cc3c(cn2)OCCO3)CC1"
  bioavailability (%): 55

====

Assay: Volume of distribution at steady state in cynomolgus monkey at 3 mg/kg, iv
Assay type: ADME, organism-based, Macaca fascicularis
Design: dose 3 mg/kg, route intravenous
Details: in vivo, read-out: Vdss

- chemicalString: "O=c1ccc2ncc(F)c3c2n1C[C@@]3(O)CN1CCC(NCc2cc3c(cn2)OCCO3)CC1"
  Vd: "3.4 L/kg"

====

Below, each entry is listed with its recorded IC50.
Target: Voltage-gated inwardly rectifying potassium channel KCNH2 (Homo sapiens)
Assay: Inhibition of human ERG by patch clamp assay

- chemicalString: "O=c1c(F)cc2ncc(F)c3c2n1C[C@@]3(O)CN1CCC(NCc2cc3c(cn2)OCCO3)CC1"
  IC50 / µM: 289
- chemicalString: "O=c1ccc2ncc(F)c3c2n1C[C@@]3(O)CN1CCC(NCc2cc3c(cn2)OCCO3)CC1"
  IC50 / µM: 239
- chemicalString: "O=c1cnc2ccc(F)c3c2n1C[C@@]3(O)CN1CCC(NCc2cc3c(cn2)OCCO3)CC1"
  IC50 / µM: 101
- chemicalString: "O=c1ccc2ncc(F)c3c2n1C[C@H]3CN1CCC(NCc2cc3c(cn2)OCCO3)CC1"
  IC50 / µM: 58

====

Assay: Plasma protein binding in human
Type: ADME, cell-free
Conditions: read-out: PPB (converted)
measure: fraction unbound

- chemicalString: "O=c1ccc2ncc(F)c3c2n1C[C@@]3(O)CN1CCC(NCc2cc3c(cn2)OCCO3)CC1"
  measure: "fraction unbound"
  val: 0.777

====

Molecular target: Voltage-gated inwardly rectifying potassium channel KCNH2 (Homo sapiens, UniProt Q12809)
Sequence (Q12809 whole entry): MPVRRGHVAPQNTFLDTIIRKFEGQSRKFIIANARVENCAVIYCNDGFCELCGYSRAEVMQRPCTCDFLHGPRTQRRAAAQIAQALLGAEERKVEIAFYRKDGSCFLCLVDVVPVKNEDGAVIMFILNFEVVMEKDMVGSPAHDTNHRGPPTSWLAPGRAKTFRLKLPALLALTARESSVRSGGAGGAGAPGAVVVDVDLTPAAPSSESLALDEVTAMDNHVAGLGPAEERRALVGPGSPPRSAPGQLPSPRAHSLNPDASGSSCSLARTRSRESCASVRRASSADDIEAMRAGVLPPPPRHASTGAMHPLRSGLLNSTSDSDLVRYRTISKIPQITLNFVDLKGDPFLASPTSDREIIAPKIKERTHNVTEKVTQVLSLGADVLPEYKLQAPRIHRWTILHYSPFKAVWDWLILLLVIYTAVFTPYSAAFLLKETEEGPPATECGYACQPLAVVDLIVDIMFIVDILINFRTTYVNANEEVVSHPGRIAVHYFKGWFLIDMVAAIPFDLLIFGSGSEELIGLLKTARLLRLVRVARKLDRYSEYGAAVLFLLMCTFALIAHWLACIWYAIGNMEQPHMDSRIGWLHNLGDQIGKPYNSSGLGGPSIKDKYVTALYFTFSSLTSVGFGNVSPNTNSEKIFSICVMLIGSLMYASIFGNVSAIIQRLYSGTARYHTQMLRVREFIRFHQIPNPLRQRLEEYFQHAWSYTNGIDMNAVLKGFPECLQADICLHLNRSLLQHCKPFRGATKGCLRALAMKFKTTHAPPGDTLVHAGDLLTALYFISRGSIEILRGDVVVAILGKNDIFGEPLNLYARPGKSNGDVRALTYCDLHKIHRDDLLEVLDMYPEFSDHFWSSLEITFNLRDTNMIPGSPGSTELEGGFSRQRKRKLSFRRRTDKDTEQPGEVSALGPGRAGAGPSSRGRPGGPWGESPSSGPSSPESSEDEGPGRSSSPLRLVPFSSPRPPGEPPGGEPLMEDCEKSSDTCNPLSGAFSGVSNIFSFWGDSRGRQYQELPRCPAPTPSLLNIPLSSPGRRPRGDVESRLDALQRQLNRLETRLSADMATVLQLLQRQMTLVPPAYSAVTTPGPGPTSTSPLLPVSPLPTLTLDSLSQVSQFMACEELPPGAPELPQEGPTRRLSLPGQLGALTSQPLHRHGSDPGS
Test: Inhibition of human ERG transfected in HEK293 cells by patch clamp assay
Format: cell-based
measure: IC50 (µM)

- chemicalString: "O=c1ccc2ncc(F)c3c2n1C[C@@]3(O)CN1CCC(NCc2cc3c(cn2)OCCO3)CC1"
  studyTarget: "Voltage-gated inwardly rectifying potassium channel KCNH2 (Homo sapiens, UniProt Q12809)"
  val: 310
- chemicalString: "O=c1ccc2ncc(F)c3c2n1C[C@H]3CN1CCC(NCc2cc3c(cn2)OCCO3)CC1"
  studyTarget: "Voltage-gated inwardly rectifying potassium channel KCNH2 (Homo sapiens, UniProt Q12809)"
  val: 122
- chemicalString: "O=c1cnc2ccc(F)c3c2n1C[C@@]3(O)CN1CCC(NCc2cc3c(cn2)OCCO3)CC1"
  studyTarget: "Voltage-gated inwardly rectifying potassium channel KCNH2 (Homo sapiens, UniProt Q12809)"
  val: 206

====

Test: Volume of distribution at steady state in Sprague-Dawley rat at 3 mg/kg, iv
Format: ADME, organism-based
Design: dose 3 mg/kg, route intravenous
Conditions: in vivo, read-out: Vdss

- chemicalString: "O=c1ccc2ncc(F)c3c2n1C[C@@]3(O)CN1CCC(NCc2cc3c(cn2)OCCO3)CC1"
  Vd / L/kg: 8.6

====

Test: Volume of distribution at steady state in Beagle dog at 3 mg/kg, iv
Format: ADME, organism-based, Canis lupus familiaris
Set-up: dose 3 mg/kg, route intravenous
Details: in vivo, read-out: Vdss
measure: Vd (L/kg)

- chemicalString: "O=c1ccc2ncc(F)c3c2n1C[C@@]3(O)CN1CCC(NCc2cc3c(cn2)OCCO3)CC1"
  endpointUnit: "L/kg"
  val: 6.4

====

Test: Plasma protein binding in monkey
Type: ADME, cell-free, Macaca mulatta
Details: rhesus monkey, read-out: PPB (converted)
measure: fraction unbound

- chemicalString: "O=c1ccc2ncc(F)c3c2n1C[C@@]3(O)CN1CCC(NCc2cc3c(cn2)OCCO3)CC1"
  val: 0.781

====

Assay: Oral bioavailability in Sprague-Dawley rat at 5 mg/kg
Format: ADME, organism-based
Details: in vivo

- chemicalString: "O=c1ccc2ncc(F)c3c2n1C[C@@]3(O)CN1CCC(NCc2cc3c(cn2)OCCO3)CC1"
  bioavailability: "34%"

====

Below, each entry is listed with its recorded IC50.
Test: Inhibition of DNA gyrase-dependent DNA replication in toluenized-Haemophilus influenzae cells assessed as ATP-dependent [33P]-TTP incorporation after 30 mins by scintillation proximity assay
Conditions: 0.5 h

- chemicalString: "O=c1ccc2ncc(F)c3c2n1C[C@@]3(F)CN1CCC(NCc2cc3c(cn2)OCCO3)CC1"
  endpointUnit: "µg/mL"
  ltGtEq: "="
  IC50: 0.04
- chemicalString: "O=c1ccc2ccc(F)c3c2n1C[C@@]3(O)CN1CCC(NCc2cc3c(cn2)OCCO3)CC1"
  endpointUnit: "µg/mL"
  ltGtEq: "="
  IC50: 0.071
- chemicalString: "O=c1ccc2ncc(F)c3c2n1C[C@H]3CN1CCC(NCc2cc3c(cn2)OCCO3)CC1"
  endpointUnit: "µg/mL"
  ltGtEq: "="
  IC50: 0.035
- chemicalString: "O=c1ccc2ncc(F)c3c2n1C[C@]3(O)CN1CCC(NCc2cc3c(cn2)OCCO3)CC1"
  endpointUnit: "µg/mL"
  ltGtEq: ">"
  IC50: 1.32
- chemicalString: "O=c1c(F)cc2ncc(F)c3c2n1C[C@@]3(O)CN1CCC(NCc2cc3c(cn2)OCCO3)CC1"
  endpointUnit: "µg/mL"
  ltGtEq: "="
  IC50: 0.037
- chemicalString: "O=c1cnc2ccc(F)c3c2n1C[C@@]3(O)CN1CCC(NCc2cc3c(cn2)OCCO3)CC1"
  endpointUnit: "µg/mL"
  ltGtEq: "="
  IC50: 0.058
- chemicalString: "O=c1ccc2ncc(F)c3c2n1C[C@@]3(O)CN1CCC[C@@H](CNCc2cc3c(cn2)OCCO3)C1"
  endpointUnit: "µg/mL"
  ltGtEq: "="
  IC50: 1.21
- chemicalString: "O=c1ccc2ncc(F)c3c2n1C[C@@]3(O)CN1CCC(NCc2cc3c(cn2)OCCO3)CC1"
  endpointUnit: "µg/mL"
  ltGtEq: "="
  IC50: 0.035
- chemicalString: "O=c1ccc2ncc(F)c3c2n1C[C@@]3(O)CN1CCO[C@@H](CNCc2cc3c(cn2)OCCO3)C1"
  endpointUnit: "µg/mL"
  ltGtEq: "="
  IC50: 0.361
